Test system: smaller brown planthoppers (Laodelphax striatellus)
Assay: LC50 against smaller brown planthoppers on sprayed rice plants (Experimental Example 2)
Assay type: in vivo
Conditions: 24 h, rice plants sprayed 10 ml/pot, after one day, read-out: LC50
MEASUREMENT_LABEL: LC50 (µg/mL)
Numbers only; they are read as µg/mL.

Tell me its LC50 given COc1ccc(C(C(=O)OCc2cccc(Oc3ccccc3)c2)C(C)C)cc1 (stereo not drawn) [reference compound] as the entry.
87

Return LC50 (reported value) for this molecule: C#CCC=C(C)C(C#C)OC(=O)C(c1ccc(Cl)c(Cl)c1)C(C)C (stereo not drawn) [Compound 2]
31

Supply measured LC50 of C#CCC=C(C)C(C#C)OC(=O)C(c1ccc(Cl)cc1)C(C)C (stereo not drawn) [Compound 1] in your reply.
23

Find the measured LC50 of C#CC(OC(=O)C(c1ccc(OC)cc1)C(C)C)C(C)=CCCC=C (stereo not drawn) [Compound 14] and report it.
46

Check the records and state LC50 for C#CC(C=Cc1ccccc1)OC(=O)C(c1ccc(SC)cc1)C(C)C (stereo not drawn) [Compound 27]
66

###

# LC50 values compiled below
Test system: smaller brown planthoppers (Laodelphax striatellus)
Assay: LC50 against smaller brown planthoppers on sprayed rice plants (Experimental Example 2)
Type: in vivo
Conditions: 24 h, rice plants sprayed 10 ml/pot, after one day, read-out: LC50
Give just the number in µg/mL; leave the unit off.

Answered examples (3):
Read off the recorded LC50 for C#CCCC=C(C)C(C#C)OC(=O)C(CC)c1ccc(C#N)cc1 (centres unmarked) [Compound 23]
50

Output LC50 of C#CCC=C(C)C(C#C)OC(=O)C(c1ccc(OC)c(OC)c1)C(C)(C)C (centres unmarked) [Compound 19]
43

Fill in reported LC50 for this entry: C#CCc1ccc(COC(=O)C(c2ccc(Cl)cc2)C(C)C)o1 (centres unmarked) [reference compound]
68

More entries:
Give LC50 for C#CCC=C(C)C(C#C)OC(=O)C(c1ccc(OC)cc1)C(C)C (centres unmarked) [Compound 3]
35

Could you please provide reported LC50 for C#CCC=C(CC)C(C#C)OC(=O)C(c1ccc(Cl)cc1)C(C)C (centres unmarked) [Compound 10] ? Thanks!
34

###

Test system: green rice leafhopper adults (Nephotettix cincticeps)
Assay: kill of green rice leafhopper adults by dusts on rice plants (Example 18)
Type: in vivo
Settings: dust of Preparation Example 6 (with piperonyl-butoxide), 3 kg/10 are; after one day; 1440 min
MEASUREMENT_LABEL: test insects killed

Report test insects killed, nothing else, for this compound: C#CC(OC(=O)C(c1ccc(F)cc1)C(C)C)C(C)=CCc1ccccc1 (stereo not shown) [Compound 12]
more than 70%

For the compound C#CCC(C(=O)OC(C#C)C(=CCCC=C)CC)c1ccc(CC)cc1 (stereo not shown) [Compound 25] , report test insects killed.
more than 70%

Assign test insects killed to the following record: C#CCC=C(C)C(C#C)OC(=O)C(c1csc(C)c1)C(C)C (stereo not shown) [Compound 7]
more than 70%

Identify test insects killed associated with the compound C#CCC=C(C)C(C#C)OC(=O)C(c1ccc(Cl)c(Cl)c1)C(C)C (stereo not shown) [Compound 2]
more than 70%

###

System: smaller brown planthoppers (Laodelphax striatellus)
Assay: LC50 against smaller brown planthoppers on sprayed rice plants (Experimental Example 2)
Format: in vivo
Conditions: 24 h, rice plants sprayed 10 ml/pot, after one day, read-out: LC50
Description: The following compounds as a control are also treated in the same manner as described above. The emulsifiable concentrates thus formulated were diluted with water to a required concentration. Each test solution thus prepared was individually sprayed on the rice plants in a pot which had elapsed 25 days after sowing, in a proportion of 10 ml/pot. Thereafter, each pot was covered with a cylindrical wire net and 15 smaller brown planthoppers (Laodelphax striatellus) were liberated in the pot. […]
MEASUREMENT_LABEL: LC50 (µg/mL)
The reply should be a number in µg/mL, with the unit left off.

For the molecule COc1ccc(C(C(=O)OC(C#N)c2cccc(Oc3ccccc3)c2)C(C)C)cc1 (stereo not shown) [drawing 45, reference compound] , give its reported LC50.
73

Consider the molecule C#CCC=C(C)C(C#C)OC(=O)C(c1coc(C)c1)C(C)C (stereo not shown) and give its recorded LC50.
32

Please give measured LC50 of the following entry: C#CCC=C(C)C(C#C)OC(=O)C(c1cc2c(s1)CCCC2)C(C)C (stereo not shown)
48

For the molecule C#CCC=C(C)C(C#C)OC(=O)C(c1ccc2c(c1)OCO2)C(C)C (stereo not shown) , give its reported LC50.
28
